Tested on: SK-OV-3 ovarian
Test: NCI tumour cell line growth inhibition, 48 h
Kindly supply the reported TGI values for the records listed here.

The examples below pair each entry with its known result.
COC(=O)[C@@H]1Cc2cc(O)c(O)cc2C2(CCN(C)CC2)O1 : > 10 µM
O=C1C(Cl)=C(N2CCN(c3ccccn3)CC2)C(=O)c2ncccc21 : 20.6 µM

For every item below, please supply its TGI.
1. N#Cc1c(N)c(C#N)c2c(c1-c1ccc(Cl)cc1)COc1ccccc1-2
2. O=C(NNC(=S)NCc1ccccc1)C12CC3CC(CC(C3)C1)C2
3. OC(c1ccccc1)C(F)(F)c1nc2ccccc2o1 (stereo unspecified)
4. CC(=O)O/N=C(Cl)/C(Cl)=N/OC(C)=O

1: 36.9 µM; 2: > 100 µM; 3: > 100 µM; 4: > 100 µM

====

Consider the following molecules; for each one, report its GI50.
Tested on: SNB-19 CNS
Assay: NCI tumour cell line growth inhibition, 48 h

C=C1CCC2C3(C)COC(c4ccc(Cl)cc4)OC3CCC2(C)C1/C=C/C1=CCOC1=O (centres undefined) : 15.9 µM
CC(C)CCC(=O)[C@@H](C)[C@H]1[C@@H](OC2OCC(O)C(O)C2NS(C)(=O)=O)C[C@H]2[C@@H]3CC=C4C[C@@H](O)CC[C@]4(C)[C@H]3CC[C@]12C (some centres undefined) : 1.34 µM
O=C(Nc1cccc(Cl)c1)c1cc(N=Nc2ccc([N+](=O)[O-])cc2Cl)ccc1O : 3.07 µM
CCOC(=O)c1cc(-c2ccc(OC)c(OC)c2)[nH]c1N/N=C/c1c(Cl)cccc1Cl : 2.6 µM
COC(=O)c1ccc2c(c1)c1c(C)c3ccncc3c(C)c1n2C : 0.206 µM
Cc1cc(NNC(=O)c2ccccc2O)nc(Nc2nc3ccccc3o2)n1 : 1.86 µM
CC(=O)C1CCC2C3CC=C4CC(SC(=N)N)CCC4(C)C3CCC12C (centres undefined) : 3.12 µM
COc1ccc(/C=C2\CC(C)CC3C2=NN(c2ccccc2)C3c2ccc(OC)c(OC)c2)cc1OC (centres undefined) : 7.39 µM

Batch: GI50 for all items listed.
1. O=C(Cn1c(C(=O)c2ccccc2)nc2ccccc21)c1ccc(F)cc1
2. O=C(NN1C(=O)CSC12CCCC2)C(O)c1ccccc1 (centres undefined)
3. COC(=O)C1=C(O)[C@H](C(=O)OC)[C@]2(O)[C@@H](C(=O)OC)[C@H]1C[C@@H](c1ccc(OC(=O)/C=C/c3ccco3)cc1)[C@@H]2C(=O)OC

["25.2 µM", "> 100 µM", "22.6 µM"]

# return GI50 for each item in the list
1. CSc1ccc(C2=NN(C(C)=O)C(c3ccc(F)cc3)C2)cc1 (centres undefined)
2. O=S(=O)(Nc1ccc2ccccc2c1)c1ccc(-c2cnc(C3CC3)o2)cc1
3. CCc1nc2cc(/C=C/C(=O)NO)ccc2c(=O)n1CCc1ccc(F)cc1
4. COc1cc2ncn(-c3cc(OCc4ccccc4C(F)(F)F)c(C(C)=O)s3)c2cc1OC
5. Cc1nnc(-c2ccc(C)c(-c3ccc(C(=O)NCc4ccc(Cl)cc4)cc3)c2)o1

["8.19 µM", "1.49 µM", "1.82 µM", "> 25 µM", "> 22.6 µM"]

Parameters: items (list). Returns: GI50 for each item.
1. COc1ccc2c(c1)N(CCO)C1=C(C(=O)OC1)C2c1ccccc1 (centres undefined)
2. CO[C@@H]1[C@H]2[C@@H](C)c3ccoc3C[C@@H]2[C@@]2(C)CC[C@H](OC(=O)c3ccccc3)[C@](C)(C(=O)O)[C@]2(O)[C@@H]1OC(=O)c1ccccc1

2.32 µM
16.1 µM

Data request, read-out GI50, for CCCN1C(=O)/C(=C/c2ccc(O)cc2)SC1=Nc1ccc(OC)cc1
19.6 µM

====

System: HCC-2998 colon
Experiment: NCI tumour cell line growth inhibition, 48 h
measurement name: TGI

CC(=O)O/N=C(Cl)/C(Cl)=N/OC(C)=O : > 100 µM
Cn1c2c3c(F)c(F)ccc3nc-2cc2ccccc21 : 3.63 µM
COc1ccc2c(-c3ccc(O)cc3)c(Oc3ccc(Cl)cc3)c(=O)oc2c1 : 25.7 µM
Cc1ccc(-c2cc(-c3c(C)nn(C)c(=O)c3N)[nH]n2)cc1 : > 100 µM
Cc1c2c(ccc3ccccc32)c[n+]2ccccc12 : 26 µM

Take each entry in turn and give its TGI.
1. C1CCN2CC3CCCN4CCCC(C2C1)C34 (stereo unspecified)
2. CC1CCc2c(c(CC3CC(=O)NC(=O)C3)nn2-c2ccccc2)C1 (stereo unspecified)
3. Cc1cc2c(cc1C)C(=O)/C(=N/Nc1ccc(F)cc1)CCO2

1. > 100 µM
2. > 100 µM
3. > 100 µM

// input: 2 molecules below; output: TGI for each
1. COCOCC[C@@H]1CC=CC(NC(=O)OCc2ccccc2)C1/C=C/C(=O)CCC1OCCO1 (stereo partly specified)
2. CCOC(=O)c1csc(NC(=O)COc2cccc(/C=C3\CSc4ccccc4C3=O)c2)n1

1: > 100 µM; 2: 0.382 µM

GET /values?readout=TGI&item= CC(=O)Nc1ccc2cc3[nH]c4cc(NC(C)=O)ccc4c3nc2c1
> 100 µM

====

Test system: 786-0 renal
Experiment: NCI tumour cell line growth inhibition, 48 h
Answer each item with its documented TGI.
Numbers only, in µM.

CC1=CC(C)(C)Nc2ccc(CSc3ccccc3)cc21 : 72.1

I would be grateful if you could share the reported TGI for Cc1cc(C)nc(NS(=O)(=O)c2ccc(NC(=O)c3ccc(Cl)c4c(Nc5ccc(S(=O)(=O)N=C(N)N)cc5)c5ccccc5nc34)cc2)n1 .
96.1

====

Tested on: HCT-15 colon
Assay: NCI tumour cell line growth inhibition, 48 h
Kindly supply the reported TGI values for the records listed here.

CCCCCCCCCCCCCCCC(=O)OC1C(O)C(CO)OC(OC)C1NC(=O)N(CCCl)N=O (stereo unspecified) : 54.8 µM
Oc1cc(CN2COc3ccccc32)c(O)cc1CNC1CCCCC1 : 47.6 µM
COc1cc(C23OCC(Cc4cc5c(cc42)OCO5)C3CO)cc(OC)c1OC (stereo unspecified) : > 100 µM
CC(CCCC1SCC2NC(=O)NC21)C(=O)O (stereo unspecified) : > 100 µM
O=C(O)c1nccnc1C(=O)O : > 100 µM

Value sought for every listed molecule: TGI.
1. COC(=O)c1cc(C)n(CN(Cc2ccccc2)Cn2nc(C(=O)OC)cc2C)n1
2. CCC(=O)NCCc1c2c3c(ccnc3c3ncsc13)-c1ccccc1N2
3. Cc1ccc(NC(=O)CC/C(CC(=O)C(C)(C)C)=N\Nc2ccc([N+](=O)[O-])cc2[N+](=O)[O-])cc1C
4. CC[C@@H](C)Nc1cc(C(=O)NC2CC3CCC(C2)N3c2ccc(C(=O)C3CC3)cn2)c(C)cc1C(N)=O (stereo partly specified)
5. O=C(Nn1cnn2c(=O)c3ccccc3nc2c1=O)c1ccccc1
6. O=[As](O)(O)c1ccc2nc3cc([As](=O)(O)O)ccc3nc2c1
7. O=C1C(Cl)C(c2cc3cc(Br)ccc3nc2Cl)N1c1c(Cl)cccc1Cl (stereo unspecified)

["> 58.2 µM", "> 100 µM", "> 100 µM", "> 100 µM", "> 100 µM", "> 100 µM", "> 25 µM"]

// batch mode: one TGI value per listed entry
1. NC(N)=NS(=O)(=O)c1ccc(NC(=O)c2ccc3[nH]c4ccccc4c(=O)c3c2)cc1
2. Cc1c2c(ccc3ccccc32)c[n+]2ccccc12
3. COC1(CC[C@H](C)COC2OC(CO)C(O)C(O)C2O)O[C@H]2C[C@H]3[C@@H]4CC=C5C[C@@H](OC6OC(CO)C(O)C(OC7OC(CO)C(O)C(O)C7O)C6OC6OC(C)C(O)C(O)C6O)CC[C@]5(C)[C@H]4CC[C@]3(C)[C@H]2[C@@H]1C (stereo partly specified)
4. N#CCCN(CCC#N)c1ccc(/C=C2\N=C(c3cc([N+](=O)[O-])ccc3Cl)N(NC(=O)CC(=O)Nc3ccccc3Cl)C2=O)cc1
5. C=CCn1cnc2c(=O)[nH]c(Nc3ccccc3)nc21

1: > 100 µM; 2: > 100 µM; 3: 7.43 µM; 4: > 100 µM; 5: > 100 µM

====

System: NCI-H23 lung
Assay: NCI tumour cell line growth inhibition, 48 h
Where a SMILES comes first, the peptide text is derived from it. [ ]: non-standard residue; d: D form. 2Nal = N[CH](Cc1ccc2ccccc2c1)C(=O)O
label 1 means recorded TGI is 20 µM or above; label 0 means it is below 20 µM.

Answered cases to consult:
CC(C)CCC(=O)[C@@H](C)[C@H]1[C@@H](OC2OCC(O)C(O)C2NS(C)(=O)=O)C[C@H]2[C@@H]3CC=C4C[C@@H](O)CC[C@]4(C)[C@H]3CC[C@]12C (stereo partly drawn) : label 0
O=C1C(Cl)=C(N2CCN(c3ccccn3)CC2)C(=O)c2ncccc21 : label 0
CN(C)c1ccc(C(=NN)c2ccc(N(C)C)cc2)cc1 : label 1
COc1ccc(CNc2cnc3cc(N)cc(N)c3n2)cc1 : label 1
C=C1CC(CN2CCC(=O)NC2=O)(c2ccccc2)OC1=O (stereo not drawn) : label 1

Evaluate O=C(N/N=C(/COc1cccc(Cl)c1)N=Cc1cccnc1)c1ccncc1 : TGI at minimum 20 µM?
label 1

Next: CCOC(=O)c1cc(-c2ccc(OC)c(OC)c2)[nH]c1N/N=C/c1c(Cl)cccc1Cl
label 0

Next compound: CC(C)C(NC(=O)C(CCCCN)NC(=O)C(Cc1c[nH]c2ccccc12)NC(=O)C(Cc1ccc(O)cc1)NC(=O)C(CS)NC(=O)C(N)Cc1ccc2ccccc2c1)C(=O)NC(CS)C(=O)NC(C(N)=O)C(C)O (stereo not drawn) (H-[2Nal]CYWKVCT-NH2; configuration not given here)
label 1
